The reported numbers originate from patent US9296778B2.

Reported Ms Liver 2′-MeGTP AUC is given for each of the following molecules.
Assay notes: Liver pharmacokinetics following a single oral dose in CD-1 mice
Type: in vivo
Protocol conditions: single oral dose 25 mg/kg in PEG 200, CD-1 male mice; given at 1 μmol/kg; 25 mg/kg
Outcome measure: Ms Liver 2′-MeGTP AUC (pmol · hr/g at 1 μmol/kg)

Molecule	Display unit	Endpoint result
CCOc1nc(N)nc2c1ncn2[C@@H]1O[C@@H]2COP(=O)(OCCSC(=O)C(C)(C)CO)O[C@H]2[C@@]1(C)F (single isomer, unassigned) [Compound 5 Diastereomer 2]	pmol · hr/g at 1 μmol/kg	2600
CCOc1nc(N)nc2c1ncn2[C@@H]1O[C@@H]2COP(=O)(OCCSC(=O)C(C)(C)CO)O[C@H]2[C@@]1(C)F (single isomer, unassigned) [Compound 5 Diastereomer 1]	pmol · hr/g at 1 μmol/kg	1200
CCOc1nc(N)nc2c1ncn2[C@@H]1O[C@@H]2COP(=O)(OCCSC(=O)C(C)(C)CO)O[C@H]2[C@@]1(C)O (single isomer, unassigned) [Compound 4 Diastereomer 1]	pmol · hr/g at 1 μmol/kg	480

====

Assay notes: Stability in simulated gastric fluid
Assay type: in vitro ADME
Protocol conditions: 100 μM, 2 hours at 37° C., percent of the peak area at time zero
Outcome measure: Stability SGF (%)

Compound	Endpoint result
CCOc1nc(N)nc2c1ncn2[C@@H]1O[C@@H]2COP(=O)(OC[C@H](C)NC(=O)OC)O[C@H]2[C@@]1(C)F (single isomer, unassigned; diastereomer 2) [Compound 9 Diastereomer 2]	85
CCOc1nc(N)nc2c1ncn2[C@@H]1O[C@@H]2COP(=O)(OCCSSC(C)(C)C)O[C@H]2[C@@]1(C)F (single isomer, unassigned) [Compound 24 Diastereomer 2]	30
CCOC(=O)COP1(=O)OC[C@H]2O[C@@H](n3cnc4c(OCC)nc(N)nc43)[C@](C)(F)[C@@H]2O1 (single isomer, unassigned; diastereomer 1) [Compound 7 Diastereomer 1]	87
CCOc1nc(N)nc2c1ncn2[C@@H]1O[C@@H]2COP(=O)(OCCSSC(C)(C)C)O[C@H]2[C@@]1(C)F (single isomer, unassigned) [Compound 24 Diastereomer 1]	87
CCOc1nc(N)nc2c1ncn2[C@@H]1O[C@@H]2COP(=O)(OCCSC(=O)C(C)(C)CO)O[C@H]2[C@@]1(C)F (single isomer, unassigned) [Compound 5 Diastereomer 1]	108
CCOc1nc(N)nc2c1ncn2[C@@H]1O[C@@H]2COP(=O)(OCCCC(=O)OC(C)C)O[C@H]2[C@@]1(C)F (single isomer, unassigned) [Compound 20 Diastereomer 1]	98

====

Test system: mouse hepatocytes
Assay notes: Release of active metabolite in mouse hepatocytes
Type: in vitro ADME
Protocol conditions: 10 μM compound, mouse hepatocytes, 1, 4, 8, 12 and 24 hours

Compound	System	MsH AUC
CCOc1nc(N)nc2c1ncn2[C@@H]1O[C@@H]2COP(=O)(OCCSC(=O)C(C)(C)CO)O[C@H]2[C@@]1(C)O (single isomer, unassigned) [Compound 4 Diastereomer 1]	mouse hepatocytes	15078 pmol · hr/mill cells
CCOc1nc(N)nc2c1ncn2[C@@H]1O[C@@H]2COP(=O)(OCCSC(=O)C(C)(C)CO)O[C@H]2[C@@]1(C)F (single isomer, unassigned) [Compound 5 Diastereomer 1]	mouse hepatocytes	9866 pmol · hr/mill cells
CCOc1nc(N)nc2c1ncn2[C@@H]1O[C@@H]2COP(=O)(OCCSC(=O)C(C)(C)CO)O[C@H]2[C@@]1(C)F (single isomer, unassigned) [Compound 5 Diastereomer 2]	mouse hepatocytes	8713 pmol · hr/mill cells
CC(C)OC(=O)CCCOP1(=O)OC[C@H]2O[C@@H](n3cnc4c(=O)[nH]c(N)nc43)[C@](C)(F)[C@@H]2O1 (single isomer, unassigned; diastereomer 2) [Compound 6 Diastereomer 2]	mouse hepatocytes	BLD^a

====

Assay notes: Plasma pharmacokinetics following a single oral dose in CD-1 mice
Type: in vivo
Protocol conditions: single oral dose 25 mg/kg in PEG 200, CD-1 male mice; given at 1 μmol/kg; 25 mg/kg
Reported Ms Plasma 2′-MeG AUC is given for each of the following molecules.
Outcome measure: Ms Plasma 2′-MeG AUC (pmol · hr/mL at 1 μmol/kg)

Molecule	Display unit	Endpoint result
CCOc1nc(N)nc2c1ncn2[C@@H]1O[C@@H]2COP(=O)(OCCCC(=O)OC(C)C)O[C@H]2[C@@]1(C)O (single isomer, unassigned) [Compound 1 Diastereomer 1]	pmol · hr/mL at 1 μmol/kg	9
CC(C)OC(=O)CCCOP1(=O)OC[C@H]2O[C@@H](n3cnc4c(=O)[nH]c(N)nc43)[C@](C)(F)[C@@H]2O1 (single isomer, unassigned; diastereomer 2) [Compound 6 Diastereomer 2]	pmol · hr/mL at 1 μmol/kg	54
CCOc1nc(N)nc2c1ncn2[C@@H]1O[C@@H]2COP(=O)(OCCSC(=O)C(C)(C)CO)O[C@H]2[C@@]1(C)O (single isomer, unassigned) [Compound 4 Diastereomer 1]	pmol · hr/mL at 1 μmol/kg	6.7

====

System: HCV genotype 1b replicon
Assay notes: HCV Replicon Assay
Format: cell-based
Protocol conditions: Hepatitis C virus, 72 h, Zluc cells (Huh-7-derived, HCV genotype 1b replicon, luciferase reporter), 72 hours; read-out: HCV Replicon EC50
pEC50: −log10 of the molar value.
Reported pEC50 is given for each of the following compounds.
Outcome measure: pEC50

Compound	Outcome measure	Endpoint result
CCOc1nc(N)nc2c1ncn2[C@@H]1O[C@@H]2COP(=O)(OCCSC(=O)C(C)(C)CO)O[C@H]2[C@@]1(C)O (single isomer, unassigned) [Compound 4 Diastereomer 1]	pEC50	> 6.60
CCOc1nc(N)nc2c1ncn2[C@@H]1O[C@@H]2COP(=O)(OCCC(=O)OC(C)C)O[C@H]2[C@@]1(C)F (stereo partly drawn) [Compound 21]	pEC50	> 6.60
CCOC(=O)CCCOP1(=O)OC[C@H]2O[C@@H](n3cnc4c(OC)nc(N)nc43)[C@](C)(O)[C@@H]2O1 (stereo partly drawn) [Compound 25]	pEC50	6.00 to 6.60

====

Reported Stability SIF is given for each of the following molecules.
Assay notes: Stability in simulated intestinal fluid
Type: in vitro ADME
Protocol conditions: 100 μM, 2 hours at 37° C., percent of the peak area at time zero

Molecule	Stability SIF / %
CCOc1nc(N)nc2c1ncn2[C@@H]1O[C@@H]2COP(=O)(OCCC(=O)OC(C)C)O[C@H]2[C@@]1(C)O (single isomer, unassigned; diastereomer 2) [Compound 22 Diastereomer 2]	101
CCOc1nc(N)nc2c1ncn2[C@@H]1O[C@@H]2COP(=O)(OCCSC(=O)C(C)(C)CO)O[C@H]2[C@@]1(C)O (single isomer, unassigned) [Compound 4 Diastereomer 1]	105
CCOc1nc(N)nc2c1ncn2[C@@H]1O[C@@H]2COP(=O)(OCCCC(=O)OC(C)C)O[C@H]2[C@@]1(C)O (single isomer, unassigned) [Compound 1 Diastereomer 2]	83
CCOc1nc(N)nc2c1ncn2C1OC2COP(=O)(Oc3ccc(CC(NC(=O)OC)C(=O)OC(C)C)cc3)OC2C1(C)F (single isomer, unassigned; diastereomer 1) [Compound 13 Diastereomer 1]	72

====

System: mouse hepatocytes
Assay notes: Release of active metabolite in mouse hepatocytes
Type: in vitro ADME
Protocol conditions: 10 μM compound, mouse hepatocytes, 1, 4, 8, 12 and 24 hours
Outcome measure: MsH AUC (pmol · hr/mill cells)

Compound	System	Display unit	Endpoint result
CCOc1nc(N)nc2c1ncn2[C@@H]1O[C@@H]2COP(=O)(OCCSC(=O)C(C)(C)CO)O[C@H]2[C@@]1(C)O (single isomer, unassigned) [Compound 4 Diastereomer 2]	mouse hepatocytes	pmol · hr/mill cells	13328
CCOc1nc(N)nc2c1ncn2[C@@H]1O[C@@H]2COP(=O)(OCCCC(=O)OC(C)C)O[C@H]2[C@@]1(C)F (single isomer, unassigned; diastereomer 2) [Compound 3 Diastereomer 2]	mouse hepatocytes	pmol · hr/mill cells	3265

====

Reported CC50 is given for each of the following compounds.
Assay notes: in vitro
Protocol conditions: human, HCV Replicon CC50, Zluc cells, CellTiter-Blue
Outcome measure: CC50

Compound	Endpoint result
CCOc1nc(N)nc2c1ncn2[C@@H]1O[C@@H]2COP(=O)(OC[C@H](NC(=O)OC)C(=O)OC(C)C)O[C@H]2[C@@]1(C)F (some centres unmarked)	> 50 µM
CCOc1nc(N)nc2c1ncn2[C@@H]1O[C@@H]2COP(=O)(OCCCC(=O)OC(C)C)O[C@H]2[C@@]1(C)F (single isomer, unassigned) [Compound 20 Diastereomer 1]	> 50 µM
CCOc1nc(N)nc2c1ncn2[C@@H]1O[C@@H]2COP(=O)(OCCSC(=O)C(C)(C)CO)O[C@H]2[C@@]1(C)F (single isomer, unassigned) [Compound 5 Diastereomer 1]	> 50 µM
CCOc1nc(N)nc2c1ncn2[C@@H]1O[C@@H]2COP(=O)(OCCCC(=O)OC(C)C)O[C@H]2[C@@]1(C)O (single isomer, unassigned) [Compound 1 Diastereomer 1]	> 50 µM
CCOc1nc(N)nc2c1ncn2[C@@H]1O[C@@H]2COP(=O)(OCCSSC(C)(C)C)O[C@H]2[C@@]1(C)F (single isomer, unassigned) [Compound 24 Diastereomer 1]	< 50 µM
